- system.under.test: 72 kDa type IV collagenase (Homo sapiens, UniProt P08253)
- Sequence (P08253 whole entry): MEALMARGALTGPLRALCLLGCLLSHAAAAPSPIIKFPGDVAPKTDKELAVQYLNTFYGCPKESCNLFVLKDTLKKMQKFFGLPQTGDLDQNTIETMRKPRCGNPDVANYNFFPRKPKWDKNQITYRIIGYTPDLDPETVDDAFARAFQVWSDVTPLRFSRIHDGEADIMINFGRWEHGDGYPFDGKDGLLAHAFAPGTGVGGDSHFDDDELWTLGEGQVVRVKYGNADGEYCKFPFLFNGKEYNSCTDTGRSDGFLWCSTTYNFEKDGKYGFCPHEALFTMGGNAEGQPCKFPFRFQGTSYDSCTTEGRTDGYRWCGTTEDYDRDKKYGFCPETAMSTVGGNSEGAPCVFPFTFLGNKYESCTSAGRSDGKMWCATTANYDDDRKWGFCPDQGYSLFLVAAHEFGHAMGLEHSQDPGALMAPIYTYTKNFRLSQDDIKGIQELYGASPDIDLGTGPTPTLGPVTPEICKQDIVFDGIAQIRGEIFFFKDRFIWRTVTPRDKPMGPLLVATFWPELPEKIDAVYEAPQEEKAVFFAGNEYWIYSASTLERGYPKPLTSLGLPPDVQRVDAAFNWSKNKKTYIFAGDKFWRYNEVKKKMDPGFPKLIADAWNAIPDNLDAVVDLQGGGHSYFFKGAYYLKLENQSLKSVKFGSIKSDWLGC
Note to self: use 1.0 only for IC50 readings below 0.04 µM; a reading exactly at 0.04 µM still gets 0.0.

### Prompt Please determine if `O=C1NC(=O)C(c2ccc(Oc3ccccc3)cc2)(N2CCN(CCOCCOCCOCCOCCOCCOCCOCCOCc3cn(CCF)nn3)CC2)C(=O)N1` is below 0.04 µM in terms of IC50.
### Response 0.0

### Prompt Please determine if `O=C1NC(=O)C(c2ccc(Oc3ccccc3)cc2)(N2CCN(CCOCCOCCOCCOCc3cn(CCOCCOCCOCCOc4cccnc4F)nn3)CC2)C(=O)N1` is below 0.04 µM in terms of IC50.
### Response 0.0

### Prompt Please determine if `O=C1NC(=O)C(c2ccc(Oc3ccccc3)cc2)(N2CCN(CCOCCOCCOCCn3cc(CNS(=O)(=O)c4ccc(F)cc4)nn3)CC2)C(=O)N1` is below 0.04 µM in terms of IC50.
### Response 1.0

### Prompt Please determine if `O=C1NC(=O)C(c2ccc(Oc3ccccc3)cc2)(N2CCN(CCOCCOCCOCCn3cc(CCCCOc4cccnc4F)nn3)CC2)C(=O)N1` is below 0.04 µM in terms of IC50.
### Response 0.0

### Prompt Please determine if `O=C1NC(=O)C(c2ccc(Oc3ccccc3)cc2)(N2CCN(c3cccc(F)n3)CC2)C(=O)N1` is below 0.04 µM in terms of IC50.
### Response 0.0

----------
A short record of pIC50 observed with Collagenase 3 (Homo sapiens, UniProt P45452) follows.
Bear in mind: pIC50 is minus log10 of a mol/L concentration; give just that figure.

### Prompt Reported pIC50 for `CN(Cc1cn(CCOCCOCCOCCN2CCN(C3(c4ccc(Oc5ccccc5)cc4)C(=O)NC(=O)NC3=O)CC2)nn1)S(=O)(=O)c1ccc(F)cc1` : what is it?
### Response 7.68

### Prompt Reported pIC50 for `O=C1NC(=O)C(c2ccc(Oc3ccccc3)cc2)(N2CCN(CCOCCOCCOCCOCCOCCOCCOCCOCc3cn(CCF)nn3)CC2)C(=O)N1` : what is it?
### Response 7.03

### Prompt Reported pIC50 for `O=C1NC(=O)C(c2ccc(Oc3ccccc3)cc2)(N2CCN(CCOCCOCCOCCOCc3cn(CCF)nn3)CC2)C(=O)N1` : what is it?
### Response 7.29

### Prompt Reported pIC50 for `O=C1NC(=O)C(c2ccc(Oc3ccccc3)cc2)(N2CCN(CCOCCOCCOCCNC(=O)c3ccc(F)cc3)CC2)C(=O)N1` : what is it?
### Response 7.80

----------
Could you please report measured IC50 for the items listed next?

### Prompt Query IC50 on Matrix metalloproteinase-9 (Homo sapiens, UniProt P14780) for `O=C1NC(=O)C(c2ccc(Oc3ccccc3)cc2)(N2CCN(CCOCCOCCOCCOCc3cn(CCF)nn3)CC2)C(=O)N1`
Sequence (P14780 whole entry): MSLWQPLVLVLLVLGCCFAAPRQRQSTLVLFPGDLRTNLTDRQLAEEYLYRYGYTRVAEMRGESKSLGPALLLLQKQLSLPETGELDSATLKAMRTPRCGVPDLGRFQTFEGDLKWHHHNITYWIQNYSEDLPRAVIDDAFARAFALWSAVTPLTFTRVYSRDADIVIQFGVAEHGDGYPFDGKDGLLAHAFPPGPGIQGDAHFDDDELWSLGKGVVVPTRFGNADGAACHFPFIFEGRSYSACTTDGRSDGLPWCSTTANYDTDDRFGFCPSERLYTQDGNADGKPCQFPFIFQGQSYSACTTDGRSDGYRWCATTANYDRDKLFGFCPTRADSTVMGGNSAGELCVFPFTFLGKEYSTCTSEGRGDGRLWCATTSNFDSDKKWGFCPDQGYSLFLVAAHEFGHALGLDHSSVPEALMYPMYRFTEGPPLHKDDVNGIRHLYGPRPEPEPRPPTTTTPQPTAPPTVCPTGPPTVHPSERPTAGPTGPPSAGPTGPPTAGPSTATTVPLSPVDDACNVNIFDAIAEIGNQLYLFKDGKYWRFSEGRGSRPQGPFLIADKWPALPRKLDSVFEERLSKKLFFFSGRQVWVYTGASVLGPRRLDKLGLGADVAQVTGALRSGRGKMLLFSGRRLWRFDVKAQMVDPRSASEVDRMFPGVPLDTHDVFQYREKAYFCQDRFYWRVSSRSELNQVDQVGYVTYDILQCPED
### Response 27 nM

### Prompt Query IC50 on Matrix metalloproteinase-9 (Homo sapiens, UniProt P14780) for `O=C1NC(=O)C(c2ccc(Oc3ccccc3)cc2)(N2CCN(c3cccc(F)n3)CC2)C(=O)N1`
### Response 9 nM

### Prompt Query IC50 on Matrix metalloproteinase-9 (Homo sapiens, UniProt P14780) for `O=C1NC(=O)C(c2ccc(Oc3ccccc3)cc2)(N2CCN(CCOCCOCCOCCn3cc(COC(=O)c4ccc(F)cc4)nn3)CC2)C(=O)N1`
### Response 23 nM

### Prompt Query IC50 on Matrix metalloproteinase-9 (Homo sapiens, UniProt P14780) for `O=C1NC(=O)C(NCc2cn(CCOCCOCCOCCOc3cccnc3F)nn2)(c2ccc(Oc3ccccc3)cc2)C(=O)N1`
### Response 10 nM

### Prompt Query IC50 on Matrix metalloproteinase-9 (Homo sapiens, UniProt P14780) for `O=C1NC(=O)C(c2ccc(Oc3ccccc3)cc2)(N2CCN(CCOCCOCCOCCOCCOCCOCCOCCOCc3cn(CCF)nn3)CC2)C(=O)N1`
### Response 74 nM

### Prompt Query IC50 on Matrix metalloproteinase-9 (Homo sapiens, UniProt P14780) for `O=C1NC(=O)C(NCc2cn(CCOCCOCCOCCF)nn2)(c2ccc(Oc3ccccc3)cc2)C(=O)N1`
### Response 41 nM

### Prompt Query IC50 on Matrix metalloproteinase-9 (Homo sapiens, UniProt P14780) for `CN(Cc1cn(CCOCCOCCOCCN2CCN(C3(c4ccc(Oc5ccccc5)cc4)C(=O)NC(=O)NC3=O)CC2)nn1)S(=O)(=O)c1ccc(F)cc1`
### Response 7 nM

----------
- system.under.test: Collagenase 3 (Homo sapiens)
assay.readout: IC50 (nM)
Field format: number, assumed nM, no unit text.

### Prompt Query IC50 on Collagenase 3 (Homo sapiens) for `O=C1NC(=O)C(c2ccc(Oc3ccccc3)cc2)(N2CCN(CCOCCOCCOCCOCc3cn(CCOCCOCCOCCOc4cccnc4F)nn3)CC2)C(=O)N1`
### Response 605

### Prompt Query IC50 on Collagenase 3 (Homo sapiens) for `O=C1NC(=O)C(NCc2cn(CCOCCOCCOCCOc3cccnc3F)nn2)(c2ccc(Oc3ccccc3)cc2)C(=O)N1`
### Response 9

### Prompt Query IC50 on Collagenase 3 (Homo sapiens) for `O=C1NC(=O)C(NCc2cn(CCOCCOCCOCCF)nn2)(c2ccc(Oc3ccccc3)cc2)C(=O)N1`
### Response 87

### Prompt Query IC50 on Collagenase 3 (Homo sapiens) for `O=C1NC(=O)C(c2ccc(Oc3ccccc3)cc2)(N2CCN(CCOCCOCCOCCn3cc(COC(=O)c4ccc(F)cc4)nn3)CC2)C(=O)N1`
### Response 7

----------
Could you please report measured IC50 for the items listed next?
- system.under.test: Collagenase 3 (Homo sapiens, UniProt P45452)

### Prompt Reported IC50 for `O=C1NC(=O)C(c2ccc(Oc3ccccc3)cc2)(N2CCN(c3cccc(F)n3)CC2)C(=O)N1` : what is it?
### Response 48 nM

### Prompt Reported IC50 for `O=C1NC(=O)C(c2ccc(Oc3ccccc3)cc2)(N2CCN(CC[18F])CC2)C(=O)N1` : what is it?
### Response 645 nM

### Prompt Reported IC50 for `O=C1NC(=O)C(c2ccc(Oc3ccccc3)cc2)(N2CCN(CCOCCOCCOCCn3cc(CCCCOc4cccnc4F)nn3)CC2)C(=O)N1` : what is it?
### Response 40 nM

### Prompt Reported IC50 for `O=C1NC(=O)C(c2ccc(Oc3ccccc3)cc2)(N2CCN(CCOCCOCCOCCn3cc(CNS(=O)(=O)c4ccc(F)cc4)nn3)CC2)C(=O)N1` : what is it?
### Response 23 nM

----------
Could you please report measured IC50 for the items listed next?
- system.under.test: Neutrophil collagenase (Homo sapiens)
- Sequence (P22894 whole entry): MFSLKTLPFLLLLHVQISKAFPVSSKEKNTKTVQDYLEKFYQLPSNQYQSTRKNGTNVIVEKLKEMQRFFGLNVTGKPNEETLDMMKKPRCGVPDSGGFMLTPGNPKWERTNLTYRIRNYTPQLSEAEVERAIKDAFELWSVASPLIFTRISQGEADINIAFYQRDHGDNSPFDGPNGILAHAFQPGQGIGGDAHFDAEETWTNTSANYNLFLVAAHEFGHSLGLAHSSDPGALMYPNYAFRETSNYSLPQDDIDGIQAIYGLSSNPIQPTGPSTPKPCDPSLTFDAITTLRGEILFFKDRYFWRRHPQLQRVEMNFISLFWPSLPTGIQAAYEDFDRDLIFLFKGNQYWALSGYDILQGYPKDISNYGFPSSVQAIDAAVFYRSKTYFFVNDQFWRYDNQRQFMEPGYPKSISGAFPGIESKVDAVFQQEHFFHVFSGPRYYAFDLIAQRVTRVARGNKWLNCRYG
- assay.comment: Inhibition of MMP8 using (7-methoxycoumarin-4-yl)acetyl-Pro-Leu-Gly-Leu-(3-(2,4-dinitrophenyl)-L-2,3-diaminopropionyl)Ala-Arg-NH2 as substrate preincubated for 30 mins measured after 10 mins by fluorescence analysis
Field format: number, assumed nM, no unit text.

### Prompt Reported IC50 for `O=C1NC(=O)C(c2ccc(Oc3ccccc3)cc2)(N2CCN(CCOCCOCCOCCn3cc(COC(=O)c4ccc(F)cc4)nn3)CC2)C(=O)N1` : what is it?
### Response 27

### Prompt Reported IC50 for `O=C1NC(=O)C(NCc2cn(CCOCCOCCOCCF)nn2)(c2ccc(Oc3ccccc3)cc2)C(=O)N1` : what is it?
### Response 48

### Prompt Reported IC50 for `O=C1NC(=O)C(c2ccc(Oc3ccccc3)cc2)(N2CCN(CCOCCOCCOCCOCc3cn(CCF)nn3)CC2)C(=O)N1` : what is it?
### Response 58

### Prompt Reported IC50 for `O=C1NC(=O)C(c2ccc(Oc3ccccc3)cc2)(N2CCN(CCOCCOCCOCCNC(=O)c3ccc(F)cc3)CC2)C(=O)N1` : what is it?
### Response 15

### Prompt Reported IC50 for `O=C1NC(=O)C(NCc2cn(CCOCCOCCOCCOc3cccnc3F)nn2)(c2ccc(Oc3ccccc3)cc2)C(=O)N1` : what is it?
### Response 49

### Prompt Reported IC50 for `O=C1NC(=O)C(c2ccc(Oc3ccccc3)cc2)(N2CCN(CCOCCOCCOCCn3cc(CNS(=O)(=O)c4ccc(F)cc4)nn3)CC2)C(=O)N1` : what is it?
### Response 19

### Prompt Reported IC50 for `O=C1NC(=O)C(c2ccc(Oc3ccccc3)cc2)(N2CCN(CCOCCOCCOCCOCCOCCOCCOCCOCc3cn(CCF)nn3)CC2)C(=O)N1` : what is it?
### Response 150

### Prompt Reported IC50 for `CN(Cc1cn(CCOCCOCCOCCN2CCN(C3(c4ccc(Oc5ccccc5)cc4)C(=O)NC(=O)NC3=O)CC2)nn1)S(=O)(=O)c1ccc(F)cc1` : what is it?
### Response 15

### Prompt Reported IC50 for `O=C1NC(=O)C(c2ccc(Oc3ccccc3)cc2)(N2CCN(CCOCCOCCOCCOCc3cn(CCOCCOCCOCCOc4cccnc4F)nn3)CC2)C(=O)N1` : what is it?
### Response 107

### Prompt Reported IC50 for `O=C1NC(=O)C(c2ccc(Oc3ccccc3)cc2)(N2CCN(CC[18F])CC2)C(=O)N1` : what is it?
### Response 138

### Prompt Reported IC50 for `O=C1NC(=O)C(c2ccc(Oc3ccccc3)cc2)(N2CCN(c3cccc(F)n3)CC2)C(=O)N1` : what is it?
### Response 129

### Prompt Reported IC50 for `O=C1NC(=O)C(c2ccc(Oc3ccccc3)cc2)(N2CCN(CCOCCOCCOCCn3cc(CCCCOc4cccnc4F)nn3)CC2)C(=O)N1` : what is it?
### Response 116
